Hello, the source for this data is patent US10233195B2, in case you need it.

Tested on: TGF-b induced Endothelin-1 production
test description: ET-1 assay: inhibitory effect on TGF-b induced endothelin-1 production
Type: cell-based
reported conditions: Homo sapiens, Fibroblast; fibroblasts, stimulant (TGFb, serum, LPA etc), ET-1 in media by ELISA, 4-parameter fit
pEC50: −log10 of the molar value.
measurement kind: pEC50

- Cn1cc(-c2cn(-c3ccc(OC(F)(F)F)cc3)c(=O)cc2NCc2ccccn2)cn1: > 4.30
- Cc1cc(=O)n(-c2ccc(OC(F)(F)F)cc2)cc1-c1nnn(C)n1: < 3.70
- O=C1CNCCN1CCOc1cc(=O)n(-c2ccc(OC(F)(F)F)cc2)cc1-c1ccc(F)cc1: < 3.70
- CCOc1ccc(-n2cc(-c3ccnnc3)c(C)cc2=O)c(C)c1: > 4.30
- O=c1ccc(-c2cn[nH]c2)cn1-c1ccc(Cl)cc1: < 3.70
- Cn1cc(-c2cn(-c3ccc(OC(F)(F)F)cc3)c(=O)cc2N2CCOCC2)cn1: > 4.30
- CN(Cc1ccccc1)c1cc(=O)n(-c2ccc(OC(F)(F)F)cc2)cc1-c1cnn(C)c1: > 4.30
- CCOc1ccc(-n2cc(-c3cccc(Cl)c3)ccc2=O)c(C)c1: > 4.30
- Cc1cc(=O)n(-c2cccc3c2OCCO3)cc1-c1ccc(F)cc1: 3.70 to 4.30
- Cn1cc(-c2cn(-c3ccc(C#N)cc3)c(=O)c3c2ccn3C)cn1: < 3.70
- Cc1cc(=O)n(-c2ccccc2)cc1-c1ccccc1: 3.70 to 4.30
- Cc1ccc(=S)n(-c2cccc(F)c2)c1: < 3.70
- Cn1cc(-c2cn(-c3ccc(OC(F)(F)F)cc3)c(=O)c3[nH]ncc23)cn1: < 3.70
- O=c1ccc2c(n1-c1ccccc1)CCC2: < 3.70
- Cn1cc(-c2cn(-c3ccc(OC(F)(F)F)cc3)c(=O)c3cccnc23)cn1: > 4.30
- O=c1ccc(-c2cn[nH]c2)cn1-c1ccc(F)cc1: 3.70 to 4.30
- C#Cc1ccc(=O)n(-c2ccccc2)c1: < 3.70
- CCOc1ccc(-n2cc(-c3ccc(F)cc3)ccc2=O)c(C)c1: < 3.70
- COCCOc1ccc(-n2cc(-c3cnn(C)c3)c(C)cc2=O)cc1: < 3.70

----------
System: TGF-b induced Endothelin-1 production
test description: ET-1 assay: inhibitory effect on TGF-b induced endothelin-1 production
Assay type: cell-based
reported conditions: Homo sapiens, Fibroblast; fibroblasts, stimulant (TGFb, serum, LPA etc), ET-1 in media by ELISA, 4-parameter fit
pEC50: −log10 of the molar value.
pEC50 reference
measurement kind: pEC50

• CCCNC(=O)c1cc(=O)n(-c2ccc(OC(F)(F)F)cc2)cc1-c1cnn(C)c1 = < 3.70
• Cn1cc(-c2cn(-c3ccc(OC(F)(F)F)cc3)c(=O)cc2C(=O)O)cn1 = < 3.70
• CCOc1ccc(-n2cc(Br)c3nccnc3c2=O)c(C)c1 = > 4.30
• Cn1cc(-c2cn(-c3ccc(OC(F)(F)F)cc3)c(=O)cc2C#N)cn1 = > 4.30
• CN1CCC(Oc2cc(=O)n(-c3ccc(OC(F)(F)F)cc3)cc2-c2cnn(C)c2)CC1 = > 4.30
• CC(=O)Nc1cccc(-n2cc(-c3cn[nH]c3)c(C)cc2=O)c1 = < 3.70
• CC(=O)c1ccc(=O)n(-c2cccc(C(F)(F)F)c2)c1 = < 3.70
• CC(=O)N1CCc2c(-c3cnn(C)c3)cn(-c3ccc(OC(F)(F)F)cc3)c(=O)c21 = 3.70 to 4.30
• N#Cc1ccc(-n2cc(-c3cn[nH]c3)c3ncccc3c2=O)cc1 = < 3.70
• Cc1cc(=O)n(-c2ccc(OC(F)(F)F)cc2)cc1-c1cccc(Cl)c1 = 3.70 to 4.30
• Cc1cc(=O)n(-c2cccc(N)c2)cc1-c1ccc(F)cc1 = 3.70 to 4.30
• Cc1cc(=O)n(-c2ccc(OC(F)(F)F)cc2)cc1-c1c(C)nn(C)c1C = 3.70 to 4.30
• Cn1cc(-c2cn(-c3ccc(F)cc3)c(=O)cc2Oc2ccccc2)cn1 = > 4.30
• Cc1cc(=O)n(-c2cccc(C(F)(F)F)c2)cc1-c1ccccc1 = > 4.30
• CCn1ccc2c(-c3cnn(CCO)c3)cn(-c3ccc(OC(F)(F)F)cc3)c(=O)c21 = > 4.30
• CC(C)C(=O)Nc1cc(=O)n(-c2ccc(OC(F)(F)F)cc2)cc1-c1ccc(F)cc1 = < 3.70
• Cc1ccc(=S)n(-c2ccc(F)cc2)c1 = < 3.70
• O=c1ncc(-c2ccc(F)cc2)cn1-c1ccccc1 = 3.70 to 4.30
• O=c1cc(O)c(-c2ccc(F)cc2)cn1-c1ccc(OC(F)(F)F)cc1 = 3.70 to 4.30
• Cn1cc(-c2cn(-c3ccc(OC(F)(F)F)cc3)c(=O)cc2N2CCCCC2)cn1 = < 3.70
• O=c1ccc(-c2ccc(F)cc2)cn1CCc1ccccc1 = 3.70 to 4.30
• Cn1cc(-c2cn(-c3ccc(OC(F)(F)F)cc3)c(=O)cc2NCc2ccc(Cl)cc2)cn1 = 3.70 to 4.30
• CCn1nc2c(-c3ccc(F)cc3)cn(-c3ccc(OC(F)(F)F)cc3)c(=O)c2n1 = < 3.70
• Cn1cc(-c2cn(-c3ccc(OC(F)(F)F)cc3)c(=O)cc2Oc2ccc(Cl)cc2)cn1 = < 3.70
• Cn1cc(-c2cn(-c3ccc(OC(F)(F)F)cc3)c(=O)cc2C(F)(F)F)cn1 = < 3.70
• Cc1cc(=O)n(-c2ccc(OC(F)(F)F)cc2)cc1-c1ccc2c(c1)OCO2 = 3.70 to 4.30
• O=c1c2[nH]nnc2c(-c2cn[nH]c2)cn1-c1ccc(OC(F)(F)F)cc1 = 3.70 to 4.30
• Cn1cc(-c2cn(-c3ccc(OC(F)(F)F)cc3)c(=O)c3cc[nH]c23)cn1 = > 4.30
• Cc1cc(=O)n(-c2ccc(Cl)cc2)cc1-c1ccc2scnc2c1 = 3.70 to 4.30
• CS(=O)(=O)n1cc(-c2ccc(=O)n(-c3ccccc3)c2)cn1 = < 3.70
• O=c1c2[nH]ccc2ccn1-c1ccc(OC(F)(F)F)cc1 = > 4.30
• O=c1c2cccnc2c(-c2cn[nH]c2)cn1-c1ccc(OC(F)(F)F)cc1 = < 3.70
• O=c1c2[nH]ccc2c(-c2ccc(F)cc2)cn1-c1ccc(OC(F)(F)F)cc1 = > 4.30
• Cc1cc(=O)n(-c2ccc(OC(F)(F)F)cc2)cc1-n1ccnc1 = < 3.70
• CC(C)c1cc(=O)n(-c2ccc(OC(F)(F)F)cc2)cc1-c1cnn(C)c1 = 3.70 to 4.30
